Recorded values, source patent US8017791B2.

- tested_on: DAT (Rattus norvegicus)
- Construct: rat striatum was the source for DAT, and cerebral cortex for SERT and NET; from tissue; P2 synaptosomal fraction for uptake
- Sequence (P23977 whole entry): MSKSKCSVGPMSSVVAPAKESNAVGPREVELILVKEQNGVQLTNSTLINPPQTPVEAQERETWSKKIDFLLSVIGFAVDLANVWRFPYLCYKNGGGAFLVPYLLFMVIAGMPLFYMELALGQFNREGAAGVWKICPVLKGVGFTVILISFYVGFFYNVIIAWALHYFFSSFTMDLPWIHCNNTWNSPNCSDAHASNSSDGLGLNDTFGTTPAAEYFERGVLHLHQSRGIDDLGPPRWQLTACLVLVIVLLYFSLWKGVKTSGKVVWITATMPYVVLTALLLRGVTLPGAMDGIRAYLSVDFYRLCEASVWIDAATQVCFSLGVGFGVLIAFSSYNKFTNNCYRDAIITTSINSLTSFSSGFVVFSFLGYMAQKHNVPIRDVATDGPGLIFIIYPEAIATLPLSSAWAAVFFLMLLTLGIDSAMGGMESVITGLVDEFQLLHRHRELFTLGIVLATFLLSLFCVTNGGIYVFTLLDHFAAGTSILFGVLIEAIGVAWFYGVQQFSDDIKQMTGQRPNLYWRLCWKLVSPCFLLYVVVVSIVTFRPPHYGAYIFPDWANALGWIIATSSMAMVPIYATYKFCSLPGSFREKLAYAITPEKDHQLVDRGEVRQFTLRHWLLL
- method_notes: Inhibition of [3H]WIN 35,428 binding to DAT
- condition_details: read-out: IC50 at the DAT
measurement_label: IC50 (nM)
Report the figure in nM without appending any unit label.

compound: Oc1ccc(CN[C@H]2CC[C@@H](C(c3ccccc3)c3ccccc3)OC2)cc1 (relative stereo) [Compound 16h]
units_symbol: nM
IC50: 78.4

compound: c1ccc(C(c2ccccc2)C2CCC(NCc3c[nH]c4ccccc34)CO2)cc1 (centres unmarked) [Compound 16f]
units_symbol: nM
IC50: 794

Which value of IC50 has been reported for COc1ccc(CN[C@H]2CC[C@@H](C(c3ccccc3)c3ccccc3)OC2)cc1 (relative stereo) [Compound 16e] in the records?
84

// same read-out, input: O=[N+]([O-])c1ccc(CN[C@H]2CC[C@@H](C(c3ccccc3)c3ccccc3)OC2)cc1 (relative stereo) [Compound 16d]
38.3

// same read-out, input: c1ccc(C(c2ccccc2)C2CCC(NCc3cc4ccccc4[nH]3)CO2)cc1 (centres unmarked) [Compound 16g]
227
